Each recorded value in this set is attributed to ChEMBL document CHEMBL2321845.

I'd appreciate it if you could supply pIC50 values for the items below.
test: Cytotoxicity against human WM164 cells assessed as growth inhibition after 48 hrs by SRB assay; assay type: functional, cell-based; details: WM164, 48 h
When answering, recall that pIC50 equals minus log10 of the concentration in mol/L, and write that number alone.

The recorded pIC50 for CCCc1[nH]c(C(=O)c2cc(OC)c(OC)c(OC)c2)nc1-c1ccccc1 is 4.71

The recorded pIC50 for O=C(c1ccc(O)cc1)c1nc(-c2ccc(O)cc2)c[nH]1 is 4.32

The recorded pIC50 for COc1ccc(C(=O)c2nc(-c3cc(OC)c(OC)c(OC)c3)c[nH]2)cc1 is 4.44

The recorded pIC50 for COc1ccc(-c2c[nH]c(C(=O)c3cc(OC)c(OC)c(OC)c3)n2)cc1 is 7.39

The recorded pIC50 for COc1cc(C(=O)c2nc(-c3ccccc3)cn2C)cc(OC)c1OC is 7.48

The recorded pIC50 for COc1cc(C(=O)c2nc(-c3ccc(Br)cc3)c[nH]2)cc(OC)c1OC is 7.51

The recorded pIC50 for COc1cc(C(=O)c2nc(-c3ccccc3)cn2-c2ccccn2)cc(OC)c1OC is 8.22

The recorded pIC50 for CCc1[nH]c(C(=O)c2cc(OC)c(OC)c(OC)c2)nc1-c1ccccc1 is 5.26

The recorded pIC50 for COc1cc(-c2c[nH]c(C(=O)c3ccc(N(C)C)cc3)n2)cc(OC)c1OC is 4.34

The recorded pIC50 for Cc1ccc(C(=O)c2nc(-c3ccc(C)cc3)c[nH]2)cc1 is 5.43

The recorded pIC50 for COc1cc(C(=O)c2nc(-c3ccc(C(F)(F)F)cc3)c[nH]2)cc(OC)c1OC is 6.84

The recorded pIC50 for O=C(c1ccc(Br)cc1)c1nc(-c2ccc(Br)cc2)c[nH]1 is 4.58

The recorded pIC50 for COc1cc(C(=O)c2nc(-c3ccc(O)cc3)c[nH]2)cc(OC)c1OC is 6.26

The recorded pIC50 for COc1cc(C(=O)c2nc(-c3ccccc3)cn2-c2cccs2)cc(OC)c1OC is 8.10

The recorded pIC50 for COc1cc(C(=O)c2nc(-c3ccc(Cl)cc3)c[nH]2)cc(OC)c1OC is 7.20

The recorded pIC50 for COc1cc(C(=O)c2nc(-c3ccc(N(C)C)cc3)c[nH]2)cc(OC)c1OC is 6.89

The recorded pIC50 for COc1cc(-c2c[nH]c(C(=O)c3ccc(Br)cc3)n2)cc(OC)c1OC is 6.75

The recorded pIC50 for COc1cc(C(=O)c2nc(-c3ccccc3)cn2C2CCCC2)cc(OC)c1OC is 7.25

The recorded pIC50 for COc1cc(C(=O)c2nc(-c3ccccc3)cn2C(C)C)cc(OC)c1OC is 7.64

The recorded pIC50 for COc1cc(C(=O)c2nc(-c3ccc(F)cc3)c[nH]2)cc(OC)c1OC is 6.53

The recorded pIC50 for CCn1cc(-c2ccccc2)nc1C(=O)c1cc(OC)c(OC)c(OC)c1 is 7.80

The recorded pIC50 for COc1cc(C(=O)c2nc(-c3ccccc3)cn2Cc2ccccc2)cc(OC)c1OC is 7.47

The recorded pIC50 for CCCn1cc(-c2ccccc2)nc1C(=O)c1cc(OC)c(OC)c(OC)c1 is 7.85

The recorded pIC50 for COc1cc(C(=O)c2nc(-c3ccccc3)c(C)[nH]2)cc(OC)c1OC is 5.72

The recorded pIC50 for COc1cc(C(=O)c2nc(-c3ccc(C)cc3)c[nH]2)cc(OC)c1OC is 7.85

The recorded pIC50 for COc1cc(C(=O)c2nc(-c3ccccc3)c[nH]2)cc(OC)c1OC is 7.85

The recorded pIC50 for COc1cc(-c2c[nH]c(C(=O)c3ccccc3)n2)cc(OC)c1OC is 5.90
